Source: ChEMBL document CHEMBL1141383

test system: J774.1; assay: Inhibition of LPS-induced nitric oxide production in murine J774.1 cells by automated Griess assay; assay type: functional, cell-based; conditions: Mus musculus
pIC50: −log10 of the molar value.
METRIC_NAME: pIC50

- SMILES_REPRESENTATION: "CCCCCCCCCCCCCCCCS(=O)(=O)NCCCNCCCCNCCCN"
  METRIC_NAME: "pIC50"
  OBSERVED_VALUE: 6.35
- SMILES_REPRESENTATION: "CCCCCCCCCCS(=O)(=O)NCCCNCCCNCCCCNCCCN"
  METRIC_NAME: "pIC50"
  OBSERVED_VALUE: 5.96

I = CCCCCCCC(=O)NCCCN(CCCNCCCNCCCCNCCCN)CCCNC(=O)CCCCCCC
II = CCCCCCCCS(=O)(=O)NCCCNCCCNCCCCNCCCN
Lookup: Of I and II , whose reported pIC50 is numerically smaller? Answer = label.
Found: II
